Data provenance is ChEMBL document CHEMBL6127141.

tested on: HCC1937; test: Cytotoxicity against human HCC1937 cells assessed as inhibition of cell proliferation incubated for 48 hrs by MTT assay; format: functional, cell-based; conditions: HCC1937, 48 h
pIC50: −log10 of the molar value.
Listed next: entries and their corresponding pIC50.
measured-metric: pIC50

O=c1c(F)cn(C2CCCO2)c(=O)n1CCCCCCCCN1C[C@H](O)[C@@H](O)[C@H](O)[C@H]1CO (stereo not given in full) : 4.71
O=c1c(F)cn(C2CCCO2)c(=O)n1CCCCCCCCCCCN1C[C@H](O)[C@@H](O)[C@H](O)[C@H]1CO (stereo not given in full) : 5.04
O=c1c(F)cn(C2CCCO2)c(=O)n1CCCCCN1C[C@H](O)[C@@H](O)[C@H](O)[C@H]1CO (stereo not given in full) : 4.36
